target or system: Cathepsin S (Mus musculus, UniProt O70370)
Sequence (O70370 whole entry): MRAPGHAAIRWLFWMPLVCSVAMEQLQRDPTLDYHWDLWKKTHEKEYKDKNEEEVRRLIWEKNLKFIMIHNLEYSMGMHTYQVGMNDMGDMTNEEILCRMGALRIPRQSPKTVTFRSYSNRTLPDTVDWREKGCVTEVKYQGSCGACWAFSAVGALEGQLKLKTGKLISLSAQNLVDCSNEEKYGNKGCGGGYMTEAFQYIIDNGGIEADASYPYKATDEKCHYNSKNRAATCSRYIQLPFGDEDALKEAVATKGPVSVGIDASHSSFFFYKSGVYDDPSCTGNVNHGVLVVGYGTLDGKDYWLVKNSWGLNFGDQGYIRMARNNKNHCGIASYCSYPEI
run description: Inhibitory activity against mouse cathepsin S
endpoint label: IC50 (µM)

CN1CCN(c2nc(-c3ccc(C(=O)NC4(C(=O)NCC#N)CCCCC4)cc3)cs2)CC1	5.4

1: CN1CCN(c2nc(-c3ccc(C(=O)NC4(C(=O)NCC(F)(F)F)CCCCC4)cc3)cs2)CC1
2: CCCN1CCN(c2ccc(C(=O)NC3(C(=O)NCC#N)CCCCC3)cc2)CC1
3: N#CCNC(=O)[C@H](CC1CCCCC1)NC(=O)c1ccccc1
Query string: Arrange the 3 compounds from largest to smallest IC50. Reply with the item labels sorted in the order that was asked for.
Result string: 1, 2, 3

Every entry's value here was drawn from ChEMBL document CHEMBL1141213.
